Consider the following compounds; for each one, report its TGI.
System: MCF7 breast
method_notes: NCI tumour cell line growth inhibition, 48 h

Below, each entry is followed by its recorded TGI result.
| compound | TGI |
| --- | --- |
| CC1OC(n2cc(F)c(=O)[nH]c2=O)C(O[Si](C)(C)C(C)(C)C)C1O[Si](C)(C)C(C)(C)C (stereo unspecified) | 35.7 µM |
| COC(=O)C(CCCCNC(=O)CNC(=O)OCc1ccccc1)NC(=O)C(CCCCNC(=O)CNC(=O)OCc1ccccc1)NC(=O)OCc1ccccc1 (stereo unspecified) | 19.1 µM |

List TGI for every entry below, keeping the order given.
1. CCn1c(-c2nonc2N)nc2ccc(F)cc21
2. NNC(=O)c1cccc2c1Oc1ccccc1S2
3. CCN(CC)CCCNc1ccc([N+](=O)[O-])c2nc3ccc(OC)cc3c(NCCCN(CC)CC)c12
4. CCCSc1cc(Cl)nc(N)n1
5. CC(C)(C)c1ccc2c(c1)OCc1n[nH]c(n1)COc1cc(C(C)(C)C)ccc1OCCOCCO2

Reply:
["> 25 µM", "> 100 µM", "3.56 µM", "> 100 µM", "12.8 µM"]
